tgt: Factor X (FX), P00742
Sequence (P00742 whole entry, looked up): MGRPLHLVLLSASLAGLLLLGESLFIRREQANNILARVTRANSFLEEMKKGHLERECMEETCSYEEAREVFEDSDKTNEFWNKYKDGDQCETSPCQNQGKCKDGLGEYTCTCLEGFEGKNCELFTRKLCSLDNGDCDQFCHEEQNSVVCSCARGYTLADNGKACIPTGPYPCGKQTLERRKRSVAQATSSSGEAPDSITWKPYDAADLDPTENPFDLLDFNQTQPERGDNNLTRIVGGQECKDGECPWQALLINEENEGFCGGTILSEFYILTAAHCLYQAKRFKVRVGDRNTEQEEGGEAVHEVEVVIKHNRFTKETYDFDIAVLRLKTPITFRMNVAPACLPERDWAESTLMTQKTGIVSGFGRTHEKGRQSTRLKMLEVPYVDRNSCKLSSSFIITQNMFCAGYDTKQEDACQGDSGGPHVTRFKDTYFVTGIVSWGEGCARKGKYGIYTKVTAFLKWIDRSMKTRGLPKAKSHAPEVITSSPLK
# Lookup of reported kcat of FX activation by FIXa in the Xase complex (FVIIIa, PC/PS vesicles, Ca2+) keyed by entry
Please give the number followed by its unit.

protein	test-result
FIXa-R318Y/R338E/Y345A/R403E/E410N (protein) chain 1: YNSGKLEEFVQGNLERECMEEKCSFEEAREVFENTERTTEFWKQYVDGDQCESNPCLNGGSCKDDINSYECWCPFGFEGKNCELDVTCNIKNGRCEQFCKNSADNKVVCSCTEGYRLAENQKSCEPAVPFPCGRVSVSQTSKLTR chain 2: VVGGEDAKPGQFPWQVVLNGKVDAFCGGSIVNEKWIVTAAHCVETGVKITVVAGEHNIEETEHTEQKRNVIRIIPHHNYNAAINKYNHDIALLELDEPLVLNSYVTPICIADKEYTNIFLKFGSGYVSGWGRVFHKGYSALVLQYLRVPLVDRATCLESTKFTIANNMFCAGFHEGGRDSCQGDSGGPHVTEVEGTSFLTGIISWGEECAMKGKYGIYTKVSEYVNWIKNKTKLT	1.4 s⁻¹

# next protein below
Prompt: Query: kcat of FX activation by FIXa in the Xase complex (FVIIIa, PC/PS vesicles, Ca2+); subject: FIXa-K247N/N249S/N260S (protein) chain 1: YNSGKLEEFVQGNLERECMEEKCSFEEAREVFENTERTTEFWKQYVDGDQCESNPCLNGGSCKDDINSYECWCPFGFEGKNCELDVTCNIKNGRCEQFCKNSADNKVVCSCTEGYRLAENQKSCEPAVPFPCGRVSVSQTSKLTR chain 2: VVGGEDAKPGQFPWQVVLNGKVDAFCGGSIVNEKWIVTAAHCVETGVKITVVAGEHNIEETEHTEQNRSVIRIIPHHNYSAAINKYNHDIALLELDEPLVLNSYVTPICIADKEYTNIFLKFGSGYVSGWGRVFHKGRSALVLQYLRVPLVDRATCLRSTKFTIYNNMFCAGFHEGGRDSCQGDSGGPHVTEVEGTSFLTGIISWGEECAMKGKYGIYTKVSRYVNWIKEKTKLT
Completion: 3.3 s⁻¹

Hey, just so you know, these numbers are from patent US20210230570.
